Values were extracted from the SangsterLogP compilation.

PARAMETER: logP
Please respond with just the number, no unit label.

COMPOUND	VALUE_OBSERVED
CCC(=O)O[C@]1(C(=O)CCl)[C@@H](C)C[C@H]2[C@@H]3CCC4=CC(=O)C=C[C@]4(C)[C@@]3(F)C(=O)C[C@@]21C	3.46
C[C@]12C=CC(=O)C=C1CC[C@H]1[C@@H]3CC[C@](O)(C(=O)CO)[C@@]3(C)C[C@H](O)[C@@]12F	1.51
CCCCC(=O)OCC(=O)[C@@]1(OC(=O)CCCC)[C@@H](C)C[C@H]2[C@@H]3CCC4=CC(=O)C=C[C@]4(C)[C@@]3(F)[C@@H](O)C[C@@]21C	5.26
CC(=O)O[C@]1(C(=O)CO)CC[C@H]2[C@@H]3CCC4=CC(=O)CC[C@]4(C)[C@H]3C(=O)C[C@@]21C	2.45
CCCC(=O)O[C@]1(C(=O)CCl)[C@@H](C)C[C@H]2[C@@H]3CCC4=CC(=O)C=C[C@]4(C)[C@@]3(F)C(=O)C[C@@]21C	3.76
C[C@H]1C[C@H]2[C@@H]3CCC4=CC(=O)C=C[C@]4(C)[C@@]3(F)[C@@H](O)C[C@]2(C)[C@@]1(O)C(=O)CCl	2.48

Answer with the recorded logP for the compound listed here: C[C@]12C[C@H](O)[C@H]3[C@@H](CCC4=CC(=O)CC[C@@]43C)[C@@H]1CC[C@@H]2C(=O)CO
2.06

Answer with the recorded logP for the compound listed here: CCCC(=O)OCC(=O)C1(O)C(C)CC2C3CCC4=CC(=O)C=CC4(C)C3(F)C(O)CC21C (centres undefined)
3.55

Answer with the recorded logP for the compound listed here: CC(=O)[C@@]1(O)[C@@H](C)C[C@H]2[C@@H]3CCC4=CC(=O)C=C[C@]4(C)[C@@]3(F)[C@@H](O)C[C@@]21C
2.35

Answer with the recorded logP for the compound listed here: CCCCC(=O)O[C@]1(C(=O)CO)CC[C@H]2[C@@H]3CCC4=CC(=O)CC[C@]4(C)[C@H]3[C@@H](O)C[C@@]21C
3.79

Answer with the recorded logP for the compound listed here: CCCCC(=O)OCC(=O)[C@@]1(O)[C@@H](C)C[C@H]2[C@@H]3CCC4=CC(=O)C=C[C@]4(C)[C@@]3(F)[C@@H](O)C[C@@]21C
3.87

Answer with the recorded logP for the compound listed here: C[C@]12C=CC(=O)C=C1CC[C@@H]1[C@@H]2[C@@H](O)C[C@@]2(C)[C@H]1CC[C@]2(O)C(=O)CO
1.58

Answer with the recorded logP for the compound listed here: CCC(=O)O[C@]1(C(=O)CO)CC[C@H]2[C@@H]3CCC4=CC(=O)CC[C@]4(C)[C@H]3[C@@H](O)C[C@@]21C
2.7

Answer with the recorded logP for the compound listed here: CCC(=O)OCC(=O)[C@@]1(O)[C@@H](C)C[C@H]2[C@@H]3CCC4=CC(=O)C=C[C@]4(C)[C@@]3(F)[C@@H](O)C[C@@]21C
3.06
